pIC50: −log10 of the molar value.
A short record of pIC50 observed with Acetylcholinesterase (Homo sapiens, UniProt P22303) follows.
Sequence (P22303 whole entry): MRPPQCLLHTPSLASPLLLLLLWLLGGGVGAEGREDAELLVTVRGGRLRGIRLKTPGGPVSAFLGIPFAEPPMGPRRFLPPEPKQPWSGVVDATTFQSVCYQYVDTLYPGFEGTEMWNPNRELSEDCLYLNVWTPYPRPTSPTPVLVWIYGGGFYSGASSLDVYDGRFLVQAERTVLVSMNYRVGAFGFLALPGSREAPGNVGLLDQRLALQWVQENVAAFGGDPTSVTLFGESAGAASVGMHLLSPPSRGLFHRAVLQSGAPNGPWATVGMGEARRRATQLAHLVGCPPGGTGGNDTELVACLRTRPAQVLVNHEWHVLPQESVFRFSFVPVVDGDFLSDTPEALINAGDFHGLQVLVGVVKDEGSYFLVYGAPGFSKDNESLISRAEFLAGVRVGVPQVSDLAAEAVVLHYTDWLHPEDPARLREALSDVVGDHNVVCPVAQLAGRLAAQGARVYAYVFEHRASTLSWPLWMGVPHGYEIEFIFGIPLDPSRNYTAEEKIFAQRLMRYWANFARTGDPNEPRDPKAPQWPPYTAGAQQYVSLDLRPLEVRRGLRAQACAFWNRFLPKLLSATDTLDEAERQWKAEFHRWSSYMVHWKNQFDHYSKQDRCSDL

smiles repr: O=C1C(Cl)=C(NCCCNc2c3c(nc4cc(Cl)ccc24)CCCC3)C(=O)c2ccccc21
pIC50: 8.05

smiles repr: O=C1C(Cl)=C(NCCCNc2c3c(nc4ccccc24)CCCC3)C(=O)c2ccccc21
pIC50: 7.42

smiles repr: COc1ccc2nc3c(c(NCCCNC4=C(Cl)C(=O)c5ccccc5C4=O)c2c1)CCCC3
pIC50: 6.09

smiles repr: O=C1C=C(NCCNc2c3c(nc4ccccc24)CCCC3)C(=O)c2ccccc21
pIC50: 7.84

smiles repr: O=C1C(Cl)=C(NCCNc2c3c(nc4cc(Cl)ccc24)CCCC3)C(=O)c2ccccc21
pIC50: 8.49

smiles repr: O=C1C(NCCNc2c3c(nc4cc(Cl)ccc24)CCCC3)=CC(=O)c2c(O)cccc21
pIC50: 9.14

smiles repr: O=C1C=C(NCCCNc2c3c(nc4cc(Cl)ccc24)CCCC3)C(=O)c2ccccc21
pIC50: 8.27

smiles repr: O=C1C=C(NCCCNc2c3c(nc4ccccc24)CCCC3)C(=O)c2ccccc21
pIC50: 7.27

smiles repr: COc1ccc2nc3c(c(NCCNC4=CC(=O)c5ccccc5C4=O)c2c1)CCCC3
pIC50: 5.60

smiles repr: O=C1C(NCCCNc2c3c(nc4cc(Cl)ccc24)CCCC3)=CC(=O)c2c(O)cccc21
pIC50: 8.03

smiles repr: COc1ccc2nc3c(c(NCCCNC4=CC(=O)c5c(O)cccc5C4=O)c2c1)CCCC3
pIC50: 6.46

smiles repr: O=C1C(NCCNc2c3c(nc4ccccc24)CCCC3)=CC(=O)c2c(O)cccc21
pIC50: 7.61

smiles repr: COc1ccc2nc3c(c(NCCNC4=C(Cl)C(=O)c5ccccc5C4=O)c2c1)CCCC3
pIC50: 5.86

smiles repr: O=C1C(Cl)=C(NCCNc2c3c(nc4ccccc24)CCCC3)C(=O)c2ccccc21
pIC50: 7.02

smiles repr: COc1ccc2nc3c(c(NCCNC4=CC(=O)c5c(O)cccc5C4=O)c2c1)CCCC3
pIC50: 6.19

smiles repr: O=C1C(NCCCNc2c3c(nc4ccccc24)CCCC3)=CC(=O)c2c(O)cccc21
pIC50: 6.99

smiles repr: COc1ccc2nc3c(c(NCCCNC4=CC(=O)c5ccccc5C4=O)c2c1)CCCC3
pIC50: 5.21

smiles repr: O=C1C=C(NCCNc2c3c(nc4cc(Cl)ccc24)CCCC3)C(=O)c2ccccc21
pIC50: 8.71
